Source: ChEMBL document CHEMBL5523702

Below: a set of entries, each annotated with reported bioavailability.
assay: Oral bioavailability in mouse at 10 mg/kg; format: ADME, organism-based; details: in vivo
// return numeric value only (unit: %, not printed)

{"molecule": "CCN1CCc2cc(O)c(N3CC(=O)NS3(=O)=O)c(F)c2CC1", "unit tag": "%", "assay result": 140}

CC(C)CCN[C@@H]1CCc2cc(O)c(N3CC(=O)NS3(=O)=O)c(F)c2C1 [OSUNPROTAFIB] yielded bioavailability of 11

###

As shown below, each of these molecules has a reported Cmax value.
experiment: Cmax in mouse at 1 mg/kg, iv; type: ADME, organism-based; conditions: in vivo
Express your answer in ng/mL, writing the number without its unit.

{"smi": "CN1CCc2cc(O)c(N3CC(=O)NS3(=O)=O)c(F)c2CC1", "unit tag": "ng/mL", "assay result": 3200}

For the next question, use this molecule.
Value of Cmax reported for the molecule CC(C)CCN[C@@H]1CCc2cc(O)c(N3CC(=O)NS3(=O)=O)c(F)c2C1 is 1860

###

assay: Volume of distribution at steady state in dog at 1 mg/kg, iv; assay type: ADME, organism-based, Canis lupus familiaris; details: in vivo, read-out: Vdss
Known Vd of a selection of compounds
Answer format: numeric, L/kg implied, no suffix.

{"compound": "CC(C)CCN[C@@H]1CCc2cc(O)c(N3CC(=O)NS3(=O)=O)c(F)c2C1 [OSUNPROTAFIB]", "Vd [L/kg]": 0.31}

Turning now to a further compound:
The value of Vd measured for the compound CCN1CCc2cc(O)c(N3CC(=O)NS3(=O)=O)c(F)c2CC1 turned out to be 0.35

###

Assay system Tyrosine-protein phosphatase non-receptor type 2 (Homo sapiens, UniProt P17706); read-out recorded as IC50.
Your answer should be a plain number; it is taken to be in nM.

# count of solved cases: 4
{"compound": "CN1CCc2cc(O)c(N3CC(=O)NS3(=O)=O)c(F)c2CC1", "assay result": 4.5}
{"compound": "CC1Cc2c(cc(O)c(N3CC(=O)NS3(=O)=O)c2F)CCN1 (stereo in doubt; 10a)", "assay result": 5}
{"compound": "CC1Cc2c(cc(O)c(N3CC(=O)NS3(=O)=O)c2F)CCN1CC1CC1 (racemic)", "assay result": 28.1}
{"compound": "CC(C)N1CCc2cc(O)c(N3CC(=O)NS3(=O)=O)c(F)c2CC1", "assay result": 9.2}

As a next step, examine the compound that follows.
Bench note, Tyrosine-protein phosphatase non-receptor type 2 (Homo sapiens, UniProt P17706): O=C1CN(c2c(O)cc3c(c2F)CCN(CC2CC2)CC3)S(=O)(=O)N1 , IC50 reads 6.04

###

# IC50 per record follows
Molecular target: UniProt:P18031
Sequence (P18031 whole entry): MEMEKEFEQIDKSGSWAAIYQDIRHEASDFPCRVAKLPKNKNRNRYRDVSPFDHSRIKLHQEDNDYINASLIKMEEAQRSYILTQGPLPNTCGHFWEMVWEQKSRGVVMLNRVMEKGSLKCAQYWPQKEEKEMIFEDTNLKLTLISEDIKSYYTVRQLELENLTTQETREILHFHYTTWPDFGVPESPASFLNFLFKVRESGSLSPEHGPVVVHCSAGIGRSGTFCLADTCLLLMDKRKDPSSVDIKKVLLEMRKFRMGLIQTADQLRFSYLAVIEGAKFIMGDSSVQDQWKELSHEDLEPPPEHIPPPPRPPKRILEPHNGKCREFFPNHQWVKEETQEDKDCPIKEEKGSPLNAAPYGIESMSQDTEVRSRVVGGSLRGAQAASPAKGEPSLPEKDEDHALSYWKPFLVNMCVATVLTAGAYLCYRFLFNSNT
The reply should read as a number followed by its unit.

{"smi": "CCN1CCc2cc(O)c(N3CC(=O)NS3(=O)=O)c(F)c2CC1", "IC50": "3.09 nM"}

Turning to the following molecule.
Form: molecule = CC(C)CCN[C@@H]1CCc2cc(O)c(N3CC(=O)NS3(=O)=O)c(F)c2C1 ; IC50 = 0.69 nM
